system: ScN2a; assay: Cytotoxicity against ScN2a cells; assay type: functional; conditions: Mus musculus, read-out: LD50 (the source's name)
Measured CC50, listed per entry for reference.
VALUE_KIND: CC50

# COMPOUND, DATA_VALUE
measured = [
    ("N#Cc1c(N)nc2sc(C(=O)c3ccccc3[N+](=O)[O-])c(N)c2c1-c1ccco1", "> 25 µM"),
    ("N#Cc1c(N)nc(SCc2ccccc2)c(C#N)c1-c1cccs1", "> 25 µM"),
    ("N#Cc1c(N)nc(SCC(N)=O)c(C#N)c1-c1ccco1", "> 25 µM"),
    ("CCN(CC)CCSc1nc(N)c(C#N)c(-c2cccc(Br)c2)c1C#N", "> 25 µM"),
    ("CCN(CC)CCSc1nc(N)c(C#N)c(-c2ccc(Br)cc2)c1C#N", "> 25 µM"),
    ("CCN(CC)CCSc1nc(N)c(C#N)c(-c2cc(Cl)cc(Cl)c2)c1C#N", "> 25 µM"),
    ("CN(CCSc1nc(N)c(C#N)c(-c2ccco2)c1C#N)Cc1ccccc1", "> 25 µM"),
    ("CCN(CC)CCSc1nc(N)c(C#N)c(-c2cccc(Cl)c2Cl)c1C#N", "> 25 µM"),
    ("CCCCN(CCCC)CCSc1nc(N)c(C#N)c(-c2ccco2)c1C#N", "> 25 µM"),
    ("CN(C)CCSc1nc(N)c(C#N)c(-c2ccco2)c1C#N", "> 25 µM"),
    ("CC(C)N(CCSc1nc(N)c(C#N)c(-c2ccco2)c1C#N)C(C)C", "> 25 µM"),
    ("CCN(CC)CCCC(C)Nc1c2ccc(Cl)cc2nc2ccc(OC)cc12 (stereo not drawn) [QUINACRINE]", "7.8 µM"),
    ("N#Cc1c(N)nc(Sc2ccccc2N)c(C#N)c1-c1ccco1", "> 80 µM"),
]
